- Assay Text: In vitro inhibitory activity against prolonging prothrombin time as anticoagulant effect on extrinsic coagulation pathway
- Format: functional
- Test Conditions: Homo sapiens
I would appreciate it if you labelled entries TRUE when Concentration prolonging prothrombin time is 20 µM or higher, otherwise FALSE.

Please tell me: is the molecule CC(CCc1ccccc1)Nc1c(F)c(Oc2cccc(C(=N)N)c2)nc(Oc2ccc(N(C)C)cc2C(=O)O)c1F (stereo in doubt; 28) at or over 20 µM in terms of Concentration prolonging prothrombin time?
FALSE

Please tell me: is the molecule CCOc1ccc(Oc2nc(Oc3cccc(C(=N)N)c3)c(F)c(NC(C)CCc3ccccc3)c2F)c(C(=O)O)c1 (stereo unspecified) at or over 20 µM in terms of Concentration prolonging prothrombin time?
TRUE

Please tell me: is the molecule CC(CCc1ccccc1)Nc1c(F)c(Oc2cccc(C(=N)N)c2)nc(Oc2ccc(OC(C)C)cc2C(=O)O)c1F (stereo unspecified) at or over 20 µM in terms of Concentration prolonging prothrombin time?
TRUE

Please tell me: is the molecule CC(CCc1ccccc1)Nc1c(F)c(Oc2cccc(C(=N)N)c2)nc(Oc2ccc(C(=O)NC(C)C(C)(C)C)cc2C(=O)O)c1F (stereo unspecified) at or over 20 µM in terms of Concentration prolonging prothrombin time?
FALSE

Please tell me: is the molecule CCC(CO)NC(=O)c1ccc(Oc2nc(Oc3cccc(C(=N)N)c3)c(F)c(NC(C)CCc3ccccc3)c2F)c(C(=O)O)c1 (stereo unspecified) at or over 20 µM in terms of Concentration prolonging prothrombin time?
FALSE

Please tell me: is the molecule CCCOc1ccc(Oc2nc(Oc3cccc(C(=N)N)c3)c(F)c(NC(C)CCc3ccccc3)c2F)c(C(=O)O)c1 (stereo unspecified) at or over 20 µM in terms of Concentration prolonging prothrombin time?
TRUE

====

- Target Or Test System: Coagulation factor VII/tissue factor (Homo sapiens, UniProt P08709)
- Sequence (P08709 61-212 limits assumed): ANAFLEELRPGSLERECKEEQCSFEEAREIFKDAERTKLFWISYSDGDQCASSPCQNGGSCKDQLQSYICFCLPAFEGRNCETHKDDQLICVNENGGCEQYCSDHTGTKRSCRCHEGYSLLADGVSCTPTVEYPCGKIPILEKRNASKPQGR
- Sequence (P08709 213-466 limits assumed): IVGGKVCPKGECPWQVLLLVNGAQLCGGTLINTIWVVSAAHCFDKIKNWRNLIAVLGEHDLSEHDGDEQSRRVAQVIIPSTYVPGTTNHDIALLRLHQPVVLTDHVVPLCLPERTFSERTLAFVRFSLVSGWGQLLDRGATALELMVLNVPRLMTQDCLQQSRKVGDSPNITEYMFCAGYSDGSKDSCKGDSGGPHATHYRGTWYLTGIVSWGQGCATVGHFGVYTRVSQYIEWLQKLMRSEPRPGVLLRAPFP
- Sequence (P13726 33-295 partner limits assumed): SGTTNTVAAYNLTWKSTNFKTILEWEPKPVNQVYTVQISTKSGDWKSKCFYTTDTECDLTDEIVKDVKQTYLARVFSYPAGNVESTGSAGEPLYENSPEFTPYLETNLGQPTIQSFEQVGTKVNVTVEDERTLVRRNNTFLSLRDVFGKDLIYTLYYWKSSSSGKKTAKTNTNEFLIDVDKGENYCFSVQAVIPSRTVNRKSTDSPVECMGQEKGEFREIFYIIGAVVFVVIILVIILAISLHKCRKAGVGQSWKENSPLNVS
- Assay Text: Inhibitory concentration against human coagulation factor VIIa/tissue factor cleavage of fluorogenic substrate SN17c at 37 degree C for 15 minutes
Observable: pIC50
Expect pIC50 as a plain number equal to -log10 of the molar concentration.

Please give measured pIC50 of the following entry: CC(CCc1ccccc1)Nc1c(F)c(Oc2cccc(C(=N)N)c2)nc(Oc2ccc(C(=O)O)cc2C(=O)O)c1F (stereo not given)
6.70

Please give measured pIC50 of the following entry: CC(CCc1ccccc1)Nc1c(F)c(Oc2cccc(C(=N)N)c2)nc(Oc2ccc(C(=O)NCCCO)cc2C(=O)O)c1F (stereo not given)
7.15

Please give measured pIC50 of the following entry: CC(CCc1ccccc1)Nc1c(F)c(Oc2cccc(C(=N)N)c2)nc(Oc2ccc(C(C)(C)C)cc2C(=O)O)c1F (stereo not given)
7.68

Please give measured pIC50 of the following entry: CC(CCc1ccccc1)Nc1c(F)c(Oc2cccc(C(=N)N)c2)nc(Oc2ccc(C(=O)NCc3ccc(O)c(O)c3)cc2C(=O)O)c1F (stereo not given)
6.85

Please give measured pIC50 of the following entry: `Cc1c(F)c(Oc2cccc(C(=N)N)c2)nc(Oc2ccc(N(C)C)cc2C(=O)O)c1F`
6.72

Please give measured pIC50 of the following entry: CCCOc1ccc(Oc2nc(Oc3cccc(C(=N)N)c3)c(F)c(NC(C)CCc3ccccc3)c2F)c(C(=O)O)c1 (stereo not given)
7.72

Please give measured pIC50 of the following entry: CCOc1ccc(Oc2nc(Oc3cccc(C(=N)N)c3)c(F)c(NC(C)CCc3ccccc3)c2F)c(C(=O)O)c1 (stereo not given)
7.54

Please give measured pIC50 of the following entry: CC(CCc1ccccc1)Nc1c(F)c(Oc2cccc(C(=N)N)c2)nc(Oc2ccc(OC(C)C)cc2C(=O)O)c1F (stereo not given)
7.77

Please give measured pIC50 of the following entry: CCCCN(CCCC)c1ccc(Oc2nc(Oc3cccc(C(=N)N)c3)c(F)c(NC(C)CCc3ccccc3)c2F)c(C(=O)O)c1 (stereo not given)
7.44

Please give measured pIC50 of the following entry: CC(CCc1ccccc1)Nc1c(F)c(Oc2cccc(C(=N)N)c2)nc(Oc2ccc(C(C)C)cc2C(=O)O)c1F (stereo not given)
7.82

Please give measured pIC50 of the following entry: CC(CCc1ccccc1)Nc1c(F)c(Oc2cccc(C(=N)N)c2)nc(Oc2ccc(C(=O)NC(C)(C)CO)cc2C(=O)O)c1F (stereo not given)
7.80

Please give measured pIC50 of the following entry: CC(CCc1ccccc1)Nc1c(F)c(Oc2cccc(C(=N)N)c2)nc(Oc2ccc(C(=O)NC(CO)CO)cc2C(=O)O)c1F (stereo not given)
7.34

Please give measured pIC50 of the following entry: CC(CCc1ccccc1)Nc1c(F)c(Oc2cccc(C(=N)N)c2)nc(Oc2ccc(N)cc2C(=O)O)c1F (stereo not given)
7.10

Please give measured pIC50 of the following entry: CC(CCc1ccccc1)Nc1c(F)c(Oc2cccc(C(=N)N)c2)nc(Oc2ccc(C(=O)NC(C)C(C)(C)C)cc2C(=O)O)c1F (stereo not given)
7.85

Please give measured pIC50 of the following entry: CC(CCc1ccccc1)Nc1c(F)c(Oc2cccc(C(=N)N)c2)nc(Oc2ccc(-c3ccccc3)cc2C(=O)O)c1F (stereo not given)
7.64

====

Provide the reported IC50 of each item.
- Target Or Test System: Coagulation factor VII/tissue factor (Homo sapiens)
- Assay Text: Inhibitory concentration against human coagulation factor VIIa/tissue factor cleavage of fluorogenic substrate SN17c at 37 degree C for 15 minutes
State the answer as a number, implicitly in nM.

Please give measured IC50 of the following entry: CNc1ccc(Oc2nc(Oc3cccc(C(=N)N)c3)c(F)c(NC(C)CCc3ccccc3)c2F)c(C(=O)O)c1 (stereo not given)
17

Please give measured IC50 of the following entry: CC(CCc1ccccc1)Nc1c(F)c(Oc2cccc(C(=N)N)c2)nc(Oc2ccc(N(C)C)cc2C(=O)O)c1F (stereo in doubt; 19)
13

Please give measured IC50 of the following entry: CC(CCc1ccccc1)Nc1c(F)c(Oc2cccc(C(=N)N)c2)nc(Oc2ccc(C(=O)N[C@H](O)C(=O)O)cc2C(=O)O)c1F (stereo not given in full)
730

Please give measured IC50 of the following entry: CCN(CC)c1ccc(Oc2nc(Oc3cccc(C(=N)N)c3)c(F)c(NC(C)CCc3ccccc3)c2F)c(C(=O)O)c1 (stereo not given)
16

Please give measured IC50 of the following entry: COc1cccc(CNC(=O)c2ccc(Oc3nc(Oc4cccc(C(=N)N)c4)c(F)c(NC(C)CCc4ccccc4)c3F)c(C(=O)O)c2)c1 (stereo not given)
8

Please give measured IC50 of the following entry: `C[C@H](CCc1ccccc1)Nc1c(F)c(Oc2cccc(C(=N)N)c2)nc(Oc2ccccc2C(=O)O)c1F`
45

Please give measured IC50 of the following entry: CC(CCc1ccccc1)Nc1c(F)c(Oc2cccc(C(=N)N)c2)nc(Oc2ccc(C(=O)NCc3cccc(O)c3)cc2C(=O)O)c1F (stereo not given)
39

Please give measured IC50 of the following entry: CC(C)CNC(=O)c1ccc(Oc2nc(Oc3cccc(C(=N)N)c3)c(F)c(NC(C)CCc3ccccc3)c2F)c(C(=O)O)c1 (stereo not given)
10

Please give measured IC50 of the following entry: `Cc1c(F)c(Oc2cccc(C(=N)N)c2)nc(Oc2ccccc2C(=O)O)c1F`
1200

Please give measured IC50 of the following entry: CCC(CO)NC(=O)c1ccc(Oc2nc(Oc3cccc(C(=N)N)c3)c(F)c(NC(C)CCc3ccccc3)c2F)c(C(=O)O)c1 (stereo not given)
23

Please give measured IC50 of the following entry: CC(CCc1ccccc1)Nc1c(F)c(Oc2cccc(C(=N)N)c2)nc(Oc2ccc(O)cc2C(=O)O)c1F (stereo not given)
560

Please give measured IC50 of the following entry: CC(CCc1ccccc1)Nc1c(F)c(Oc2cccc(C(=N)N)c2)nc(Oc2ccc(C(=O)NCCCCO)cc2C(=O)O)c1F (stereo not given)
67

Please give measured IC50 of the following entry: COc1ccc(Oc2nc(Oc3cccc(C(=N)N)c3)c(F)c(NC(C)CCc3ccccc3)c2F)c(C(=O)O)c1 (stereo not given)
39

Please give measured IC50 of the following entry: CC(CCc1ccccc1)Nc1c(F)c(Oc2cccc(C(=N)N)c2)nc(Oc2ccc(N(C)C)cc2C(=O)O)c1F (stereo in doubt; 28)
15

Please give measured IC50 of the following entry: Cc1ccc(Oc2nc(Oc3cccc(C(=N)N)c3)c(F)c(NC(C)CCc3ccccc3)c2F)c(C(=O)O)c1 (stereo not given)
20

====

- Target Or Test System: Coagulation factor X (Homo sapiens, UniProt P00742)
- Sequence (P00742 41-179 limits assumed): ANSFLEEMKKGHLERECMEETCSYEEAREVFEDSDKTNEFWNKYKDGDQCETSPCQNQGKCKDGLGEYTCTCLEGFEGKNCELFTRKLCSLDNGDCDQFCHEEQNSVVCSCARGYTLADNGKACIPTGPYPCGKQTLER
- Sequence (P00742 235-488 limits assumed): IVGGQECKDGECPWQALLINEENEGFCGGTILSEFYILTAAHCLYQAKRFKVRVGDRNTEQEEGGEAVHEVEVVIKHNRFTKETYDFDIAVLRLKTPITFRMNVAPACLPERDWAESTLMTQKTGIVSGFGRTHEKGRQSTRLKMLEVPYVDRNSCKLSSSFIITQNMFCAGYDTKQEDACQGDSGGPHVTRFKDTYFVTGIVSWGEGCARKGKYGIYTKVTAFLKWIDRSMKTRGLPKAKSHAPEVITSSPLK
Lab note: compare IC50 with 10 µM, writing Yes if less and No if equal or more.

Answer whether the molecule COc1cccc(CNC(=O)c2ccc(Oc3nc(Oc4cccc(C(=N)N)c4)c(F)c(NC(C)CCc4ccccc4)c3F)c(C(=O)O)c2)c1 (stereo not given) has IC50 strictly less than 10 µM
Yes

Answer whether the molecule CC(CCc1ccccc1)Nc1c(F)c(Oc2cccc(C(=N)N)c2)nc(Oc2ccc(C(C)C)cc2C(=O)O)c1F (stereo not given) has IC50 strictly less than 10 µM
Yes

Answer whether the molecule CC(CCc1ccccc1)Nc1c(F)c(Oc2cccc(C(=N)N)c2)nc(Oc2ccc(O)cc2C(=O)O)c1F (stereo not given) has IC50 strictly less than 10 µM
No

Answer whether the molecule CC(CCc1ccccc1)Nc1c(F)c(Oc2cccc(C(=N)N)c2)nc(Oc2ccc(C(=O)NC(C)(C)CO)cc2C(=O)O)c1F (stereo not given) has IC50 strictly less than 10 µM
No

Answer whether the molecule COc1ccc(Oc2nc(Oc3cccc(C(=N)N)c3)c(F)c(NC(C)CCc3ccccc3)c2F)c(C(=O)O)c1 (stereo not given) has IC50 strictly less than 10 µM
No

Answer whether the molecule `Cc1c(F)c(Oc2cccc(C(=N)N)c2)nc(Oc2ccccc2C(=O)O)c1F` has IC50 strictly less than 10 µM
Yes

Answer whether the molecule CC(CCc1ccccc1)Nc1c(F)c(Oc2cccc(C(=N)N)c2)nc(Oc2ccc(C(=O)NCCCCO)cc2C(=O)O)c1F (stereo not given) has IC50 strictly less than 10 µM
No

Answer whether the molecule `C[C@H](CCc1ccccc1)Nc1c(F)c(Oc2cccc(C(=N)N)c2)nc(Oc2ccccc2C(=O)O)c1F` has IC50 strictly less than 10 µM
No

Answer whether the molecule CCC(CO)NC(=O)c1ccc(Oc2nc(Oc3cccc(C(=N)N)c3)c(F)c(NC(C)CCc3ccccc3)c2F)c(C(=O)O)c1 (stereo not given) has IC50 strictly less than 10 µM
Yes

Answer whether the molecule CC(CCc1ccccc1)Nc1c(F)c(Oc2cccc(C(=N)N)c2)nc(Oc2ccc(N)cc2C(=O)O)c1F (stereo not given) has IC50 strictly less than 10 µM
No

// data source = ChEMBL document CHEMBL1143462
